Target: hGIPR (Homo sapiens)
Sequence (P48546 22-466): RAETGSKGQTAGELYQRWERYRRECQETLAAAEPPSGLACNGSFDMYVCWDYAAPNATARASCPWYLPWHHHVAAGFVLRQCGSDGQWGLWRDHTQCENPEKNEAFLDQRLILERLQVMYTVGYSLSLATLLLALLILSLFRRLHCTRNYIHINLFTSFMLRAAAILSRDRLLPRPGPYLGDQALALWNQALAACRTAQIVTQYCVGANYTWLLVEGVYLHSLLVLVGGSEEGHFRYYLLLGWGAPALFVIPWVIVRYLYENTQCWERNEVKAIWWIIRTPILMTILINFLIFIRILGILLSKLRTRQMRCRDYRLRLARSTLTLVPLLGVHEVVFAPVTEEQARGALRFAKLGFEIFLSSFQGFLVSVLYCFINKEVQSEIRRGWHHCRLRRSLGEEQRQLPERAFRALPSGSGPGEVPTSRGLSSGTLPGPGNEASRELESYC
Test: Functional cAMP activation in the presence of 0.1% casein (no HSA);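 note: intracellular cAMP rise after 30 min at 37 °C read by HTRF against a standard curve, scaled between buffer alone (0%) and top control ligand concentration (100%), four-parameter fit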
Assay type: cell-based
Details: in the presence of 0.1% casein (no HSA); geometric mean; read-out: Relative cAMP EC50, hGIPR
Starred links: 1 amine or outer side, 2 acyl side, 3 side chain; linkers in the order of their positions; H or OH if unused. Non-standard residues stand in square brackets, D forms with d. Groups on a side chain read outwards from the residue. *: point of attachment. C20 diacid = O=C(O)CCCCCCCCCCCCCCCCCCC(=O)*; C18 diacid = O=C(O)CCCCCCCCCCCCCCCCC(=O)*; γGlu = O=C(O)[C@H](CCC(=O)[*:2])N[*:1]; αMe4Pal = C[C@](N)(Cc1ccncc1)C(=O)O; 4Pal = N[C@@H](Cc1ccncc1)C(=O)O; αMeL = CC(C)C[C@](C)(N)C(=O)O; Orn = NCCC[C@H](N)C(=O)O; AEEA = NCCOCCOCC(=O)O; Aib = CC(C)(N)C(=O)O
Endpoint label: pEC50
pEC50 (log units): -log10 of the concentration in mol/L.

Reference set (3 entries):
# Substance, pEC50
records = [
    ("H-Y[Aib]QGTFTSD[4Pal]SQ[αMeL]LDKK([dE-dE-γGlu-C18 diacid])AQ[αMe4Pal]AFIEYLIE[Aib]GPSSGAPPPSGS-NH2 [Example 921]", 9.64),
    ("H-Y[Aib]QGTFTSDFS[Orn][αMeL]LDKK([AEEA-AEEA-γGlu-C18 diacid])AQ[Aib]AFIEYLLE[dA]GPSSG[4Pal]PPPSG[4Pal]-NH2 [Example 258]", 9.81),
    ("H-Y[Aib]QGTFTSD[4Pal]SQ[αMeL]LDKK([Glu-γGlu-C18 diacid])AQ[αMe4Pal]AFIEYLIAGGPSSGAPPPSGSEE-NH2 [Example 1030]", 9.91),
]

Test system hGIPR (Homo sapiens); read-out pEC50; what value for H-Y[Aib]QGTFTSDFS[Orn][αMeL]LDKK([γGlu-AEEA-γGlu-C18 diacid])AQ[Aib]AFIEYLLE[Aib]GHSSGAPPPSGS-NH2 [Example 245] ?
10.16

Test system hGIPR (Homo sapiens); read-out pEC50; what value for H-Y[Aib]QGTFTSDFSK[αMeL]LDKK([AEEA-γGlu-C20 diacid])AQ[Aib]AFIEYLLAGGPSSGAPPPGGE-NH2 [Example 15] ?
9.70

Test system hGIPR (Homo sapiens); read-out pEC50; what value for H-Y[Aib]QGTFTSD[4Pal]S[Orn][αMeL]LD[Orn]K([γGlu-γGlu-C18 diacid])AQ[αMe4Pal]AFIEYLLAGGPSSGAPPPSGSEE-NH2 [Example 1068] ?
9.68
